The values you see were collected from patent US20230066011A1.

# Target Or Test System: human GST-CLK1 (Homo sapiens)
# Sequence (P49759 129-484 limits assumed): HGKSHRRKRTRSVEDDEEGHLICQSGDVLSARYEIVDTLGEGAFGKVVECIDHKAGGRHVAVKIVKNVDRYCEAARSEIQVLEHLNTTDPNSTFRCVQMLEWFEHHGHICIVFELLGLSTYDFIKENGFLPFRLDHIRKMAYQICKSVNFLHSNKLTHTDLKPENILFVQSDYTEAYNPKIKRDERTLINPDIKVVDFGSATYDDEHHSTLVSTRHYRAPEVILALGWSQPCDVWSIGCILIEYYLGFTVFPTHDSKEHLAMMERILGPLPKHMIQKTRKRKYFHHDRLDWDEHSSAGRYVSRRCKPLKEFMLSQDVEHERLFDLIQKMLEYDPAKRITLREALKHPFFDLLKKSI
// IC50 lookup, one value per entry
Property Label: IC50

# Molecule, Property Label, Result
measured = [
    ("COc1cc(S(C)(=O)=O)ccc1Nc1nc(NC2CCCCC2)c2cc[nH]c2n1 [Example 27, 2,2,2-trifluoroacetate]", "IC50", "301 to 1000 nM"),
    ("N#Cc1c[nH]c2nc(Nc3ccc(C(=O)N4CC(CO)(CO)C4)c4c3OCCO4)nc(NCC3CC3)c12 [Example 338]", "IC50", "< 100 nM"),
    ("COCCNc1nc(Nc2ccc(S(=O)(=O)N3CCC(N4CCOCC4)CC3)cc2OC)nc2[nH]cc(C(N)=O)c12 [Example 233]", "IC50", "301 to 1000 nM"),
    ("COc1cc(S(=O)(=O)N2CCC(N3CCOCC3)CC2)ccc1Nc1nc(C2CC2)c2c(C(F)(F)F)c[nH]c2n1 [Example 226]", "IC50", "301 to 1000 nM"),
]
